- System: Candida albicans
- Assay Protocol: Antifungal activity against Candida albicans MYA2876 by CLSI […] protocol based method
- Format: functional
Readout Label: MIC (mg/L)
Output spec: scalar in mg/L, unitless text.

>  <Smiles Record>
O=C1c2ccccc2C(=O)c2c1nnn2CCCCCCCCCCP(=O)([O-])[O-].[K+].[K+]

>  <Readout Label>
MIC

>  <Result Number>
128

$$$$

Then this molecule:
Q. Endpoint output: MIC of `O=C1c2ccccc2C(=O)c2c1nnn2CCCP(=O)([O-])[O-].[K+].[K+]` . Value?
A. 32

----------
- Test system: Fusarium graminearum
- Assay Protocol: Antifungal activity against Fusarium graminearum by CLSI […] protocol based method
- Format: functional
// MIC lookup, one value per entry
Give the number; µg/mL is assumed, so skip it.

>  <Smiles Record>
CCOP(=O)(CCCCCCn1nnc2c1C(=O)c1ccccc1C2=O)OCC

>  <Target Or Test System>
Fusarium graminearum

>  <MIC, µg/mL>
4

$$$$
>  <Smiles Record>
O=C1c2ccccc2C(=O)c2c1nnn2CCCCCCCCP(=O)([O-])[O-].[K+].[K+]

>  <Target Or Test System>
Fusarium graminearum

>  <MIC, µg/mL>
32

$$$$
>  <Smiles Record>
O=C1c2ccccc2C(=O)c2c1nnn2CCCCCCCCCCP(=O)([O-])[O-].[K+].[K+]

>  <Target Or Test System>
Fusarium graminearum

>  <MIC, µg/mL>
32

$$$$
>  <Smiles Record>
O=C1c2ccccc2C(=O)c2c1nnn2CCP(=O)([O-])[O-].[K+].[K+]

>  <Target Or Test System>
Fusarium graminearum

>  <MIC, µg/mL>
32

$$$$

For the next question, use this molecule.
Q. If you can, please state the reported MIC value of `CCOP(=O)(CCCCn1nnc2c1C(=O)c1ccccc1C2=O)OCC` .
A. 8
